# Target of assay: T1, lecithin:cholesterol acyltransferase (LCAT), purified from human plasma (human, UniProt P04180 25-440)
# T1 sequence (looked up): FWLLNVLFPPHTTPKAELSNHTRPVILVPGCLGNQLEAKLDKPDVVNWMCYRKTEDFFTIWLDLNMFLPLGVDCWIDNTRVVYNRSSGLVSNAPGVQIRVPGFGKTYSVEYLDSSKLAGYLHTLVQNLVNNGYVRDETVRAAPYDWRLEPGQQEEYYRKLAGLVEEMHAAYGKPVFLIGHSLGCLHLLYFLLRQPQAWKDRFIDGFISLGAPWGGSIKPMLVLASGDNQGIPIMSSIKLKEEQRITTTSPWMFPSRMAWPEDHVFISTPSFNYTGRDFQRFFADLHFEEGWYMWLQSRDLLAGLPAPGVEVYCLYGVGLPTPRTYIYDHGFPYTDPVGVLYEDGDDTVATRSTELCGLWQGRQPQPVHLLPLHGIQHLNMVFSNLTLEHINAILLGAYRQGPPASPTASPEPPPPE
# Assay protocol: cell-based or functional assay
Non-standard residues stand in square brackets, D forms with d. No end group written: not given here. Aib = CC(C)(N)C(=O)O
Just a reminder that ties go to F: only ACTIVITY (%) LCAT strictly below 20% counts as T.

PVLELWENLLERLLDALQKKLK [peptide 176] = T
Ac-PVLDLFRELWEELKQKLK-NH2 [peptide 199] = F
VLDLFRELLNEGLEALKQKLK [peptide 47] = F
PVLDLFKELLNELLEALKQKLK [peptide 7] = F
PVLDLFRELWNELLEALKQKLK [peptide 15] = F

Lab note: confirm whether the reported ACTIVITY (%) LCAT for this binder is below 20%, equality not counting. binder: Ac-GVLDLFRELLEELKQKLK-NH2 [peptide 198]
F

Lab note: confirm whether the reported ACTIVITY (%) LCAT for this binder is below 20%, equality not counting. binder: PELDEFREKLNE[Aib]LEALKQKLK [peptide 117]
T
